System: SK-MEL-2
assay_details: NCI tumour cell line growth inhibition, 48 h
Activity calls are given as the source filed them. Rule as the data show it: active = GI50 up to about 1.1 µM and inactive = higher.
Please reply with one of these outcomes: True (active), False (inactive)

Sample answers from the record:
CCOC(=O)c1c2ccc(/C=C/c3ccccn3)ccc-2c(C(=O)OCC)c1N; False
COC(=O)[C@@H]1c2cc3c(c(O)c2[C@@H](OC2OC(C)C(OC)C(C)(OC)C2OC)C[C@]1(C)O)C(=O)c1c(O)cc2c(c1C3=O)O[C@H]1O[C@]2(C)[C@H](O)[C@@H](N(C)C)[C@@H]1O (stereo not given in full); True
O=S(=O)(F)Cc1ccccc1 [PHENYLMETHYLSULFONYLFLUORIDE]; False
O=C1c2sc(-c3ccc(F)cc3)cc2-n2cccc21; False

// switching to the query compound
Task item: Which outcome was assigned to "Cc1cccc(N/C(Sc2ccccc2)=C(/C(Cl)=C(Cl)Cl)[N+](=O)[O-])c1" in this test?
Reply: False

====

System: UO-31
assay_details: NCI tumour cell line growth inhibition, 48 h
Activity calls are given as the source filed them. No stated cut-off is given here; in the data, active = GI50 up to about 1.1 µM and inactive = higher.
experimental_readout: GI50

Previously resolved entries follow.
CCOC(=O)c1nc2ccc(C(F)(F)F)cc2nc1NCc1ccc(Cl)c(Cl)c1; 45 µM (inactive)
O=C(c1cccs1)N(C(=S)N1CCN(c2ccccc2)CC1)c1ccccc1; > 100 µM (inactive)
Cn1c(S)nc2c(Cl)cc(Cl)cc2c1=O; 64 µM (inactive)
COc1ccc2c(c1)CC1Cc3cc(OC)c(OC)cc3CN1CC2 (stereo unspecified); 15.3 µM (inactive)

Given item Cc1ccc(S(=O)(=O)OC(COC(=O)c2ccccc2)C(OS(=O)(=O)c2ccc(C)cc2)C(OS(=O)(=O)c2ccc(C)cc2)C(COC(=O)c2ccccc2)OS(=O)(=O)c2ccc(C)cc2)cc1 (stereo unspecified) , the value recorded as its GI50 is > 100 µM (inactive)

The recorded GI50 for O=S(=O)(F)Cc1ccccc1 [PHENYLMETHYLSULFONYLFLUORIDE] is > 100 µM (inactive)

Summary for this molecule, "CC(C)(C)c1cc2c(O)c(c1)Cc1cc(C(C#N)(Cc3ccc4ccccc4c3)Cc3ccc4ccccc4c3)cc(c1O)Cc1cc(C(C)(C)C)cc(c1O)Cc1cc(C(C#N)(Cc3ccc4ccccc4c3)Cc3ccc4ccccc4c3)cc(c1O)C2" : GI50 is > 100 µM (inactive)

Per the record, COC(=O)C1CCC(=O)N1C(c1ccc2c(c1)OCO2)c1cc(OC)c(OC)c(OC)c1 (stereo unspecified) has GI50 of > 100 µM (inactive)

Reported GI50 ( C[C@@]12CCC(=O)C=C1CC[C@H]1C2=CC[C@]2(C)C1CC[C@@]2(C)O (stereo partly specified) ) = 41.9 µM (inactive)

The molecule listed as O=C1/C(=C/c2ccccc2)CCC/C1=C\c1ccccc1 [2,6-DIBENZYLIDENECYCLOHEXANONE] has a reported GI50 of 18.2 µM (inactive)

The molecule "O=C(O)C(Cc1ccccc1)Cc1ccccc1" showed GI50 equal to > 100 µM (inactive)

====

Test system: Malme-3M
assay_details: NCI tumour cell line growth inhibition, 48 h
Active and inactive are the calls of the source. Cut-off read from the data, not from the text of the source: active = GI50 up to about 1.1 µM and inactive = higher.
Quick list: GI50 per entry.

Take a look at these entries with their results.
CC(C)(C)c1ccc(-n2c3nc(=O)n(-c4ccccc4CO)c(=O)c-3cc3ccccc32)cc1; > 100 µM (inactive)
COC(=O)[C@]12CC[C@H]3CN(C(=O)OCc4ccccc4)[C@H]([C@H]31)[C@H](c1ccco1)N2; 23.3 µM (inactive)
CC(C)(C)c1cc2c(O)c(c1)Cc1cc(C(C#N)(Cc3ccc4ccccc4c3)Cc3ccc4ccccc4c3)cc(c1O)Cc1cc(C(C)(C)C)cc(c1O)Cc1cc(C(C#N)(Cc3ccc4ccccc4c3)Cc3ccc4ccccc4c3)cc(c1O)C2; > 100 µM (inactive)
CCOc1ccccc1NC(=O)C(=O)CC(=O)C1=C(C)Nc2ccccc2S1; > 100 µM (inactive)
CN(Cc1ccccc1)c1cc(=O)n(C)c(=O)[nH]1; > 100 µM (inactive)

Value of GI50 reported for the compound "O=C(CSCC(=O)N/N=C/c1ccccc1)N/N=C\c1ccccc1" is > 100 µM (inactive)

Reported GI50 for CN(C)CC(/C(Cc1ccccc1)=N\NC(=O)C[n+]1ccccc1)c1ccccc1 (stereo not drawn) was > 100 µM (inactive)

Field GI50 (entry "O=C1C=C(Br)c2c(-c3ccccc3)oc3cccc1c23" ) reads 72.3 µM (inactive)

====

System: SK-MEL-5
assay_details: NCI tumour cell line growth inhibition, 48 h
Activity calls are given as the source filed them. Rule as the data show it: active = GI50 up to about 1.1 µM and inactive = higher. *1 amine or outer side, *2 acyl side, *3 side chain or, on linkers, in order; H or OH if unused. Where a SMILES comes first, the peptide text is derived from it. Bridges are numbered along the chain shown (N, C = ends). Roman numbers before positions name the chains, in order. [ ]: non-standard residue; d: D form. Actinocin(1to9) = Cc1c2oc3c(C)ccc(C(=O)[*:2])c3nc-2c(C(=O)[*:1])c(N)c1=O; NMeV = CN[CH](C(=O)O)C(C)C; Sar = CNCC(=O)O
Log the outcome using a class from yes (1) for active, no (0) for inactive

CN(C)C(=S)N=C(Nc1ccccc1)Nc1ccccc1; no (0)

Task item: Field: outcome | Entry: "O=[N+]([O-])/C=C/c1cn(CCCCCCCCn2cc(/C=C/[N+](=O)[O-])c3ccccc32)c2ccccc12"
Reply: no (0)

Task item: How did this test come out for "Cc1ccc(NC(=O)c2cc3cc(/N=N/c4ccc(Br)cc4)ccc3oc2=O)cc1" ?
Reply: no (0)

Task item: Hi, do you know how COc1ccc(CC2NC(=O)C(NC(=O)c3c4nc5c(C(=O)NC6C(=O)NC(Cc7ccc(OC)cc7)C(=O)N7CCCC7C(=O)N(C)CC(=O)N(C)C(C(C)C)C(=O)OC6C)ccc(C)c5oc-4c(C)c(=O)c3N)C(C)OC(=O)C(C(C)C)N(C)C(=O)CN(C)C(=O)C3CCCN3C2=O)cc1 (stereo unspecified) (I: TY(Me)P[Sar][NMeV] / II: TY(Me)P[Sar][NMeV]; ester I:1-I:C, II:1-II:C; linker I:N-II:N via Actinocin(1to9); configuration not given here) came out in this test?
Reply: yes (1)

Task item: Returns: the outcome recorded for "C[C@@H]1O[C@]2(O)[C@@H]3CCCN3S(=O)(=O)CCN2C1=O" in this assay.
Reply: no (0)

Task item: What did the test return for "O=C1C(=O)N(c2ccc(Cl)cc2Cl)C(=O)C(=O)C1c1nc2ccccc2s1" ?
Reply: no (0)

====

Test system: KM-20L2
assay_details: NCI tumour cell line growth inhibition, 48 h
The source made the active and inactive calls. Rule as the data show it: active = GI50 up to about 1.1 µM and inactive = higher.
Your response should consist of one outcome taken from active, inactive

These solved cases illustrate the format of a correct answer.
CC[P+](C)(C)c1ccccc1; inactive
N#Cc1nn(-c2ccc(Cl)cc2)c(=N)c2c(N)n3nc(-c4ccccc4)cc3nc12; active
NC(=S)N/N=C/C(O[C@@H](/C=N/NC(N)=S)CO)n1cnc2c(N)ncnc21 (stereo not given in full); inactive
Cc1ccc(NC(=O)/C(=N\Nc2ccc([N+](=O)[O-])cc2[N+](=O)[O-])C2C(=O)NC(=O)NC2=O)cc1; inactive

Let's switch to this compound now.
Task item: Outcome logged for CC1(C)C2CCC3(OCCO3)C1C1OC12 (stereo not given) in this assay:
Reply: inactive

====

Tested on: SN12C
assay_details: NCI tumour cell line growth inhibition, 48 h
The source made the active and inactive calls. No stated cut-off is given here; in the data, active = GI50 up to about 1.1 µM and inactive = higher.
The categories you may choose from are active, inactive

CCOC(=O)C(Cc1cn(S(=O)(=O)c2ccc(C)cc2)cn1)P(=O)(OCC)OCC (stereo unspecified); inactive

Task item: State the result this test recorded for "Cc1n[nH]c(C(F)(F)F)c1/N=N/N(C)C" .
Reply: inactive

Task item: Write down the call the test reported for this compound. Item: "Cc1[nH]c2c(c1Cc1ccccc1)C1=NC=C(O)NN1C=N2"
Reply: inactive

Task item: Just curious, what result did "CCOC(=O)/C=C(/C(=O)OCC)n1ccc(=O)n(CC(=O)OCC)c1=O" get here?
Reply: active

Task item: Called result for "COc1ccc2nc(-c3ccc(O)cc3)cn2c1"
Reply: inactive

Task item: Which outcome was assigned to Fc1cccc(CSc2ncnc3c2ncn3C2CCCS2)c1 (stereo unspecified) in this test?
Reply: inactive

====

Test system: HOP-92
assay_details: NCI tumour cell line growth inhibition, 48 h
Calls of active or inactive are those of the source. No stated cut-off is given here; in the data, active = GI50 up to about 1.1 µM and inactive = higher.
experimental_readout: GI50

// below: answered compounds
C[C@]12CC[C@H](O[C@@H]3O[C@H](CO[C@@H]4O[C@H](CO)[C@@H](O)[C@H](O)[C@H]4O)[C@@H](O)[C@H](O)[C@H]3O)C[C@@H]1CC[C@@H]1[C@@H]2CC[C@]2(C)[C@@H](C3=CC(=O)OC3)CC[C@]12O [UZARIN]; 29.4 µM (inactive)
COc1cc(CNNC(N)=S)cc(OC)c1OC; 3.46 µM (inactive)
CC1/C(=N\O)CC(c2ccccc2)N(C)C1c1ccccc1 (stereo not drawn); > 100 µM (inactive)
CCCCCCCCCCCCCCCCCCNC(=S)N/C=C1/C(=O)C=C(C)OC1=O; 27.3 µM (inactive)
O=C1/C(=C/c2cccs2)N=C(c2ccccc2)N1C1Nc2cc3c(cc2S1)NC(N1C(=O)/C(=C/c2cccs2)N=C1c1ccccc1)S3 (stereo not drawn); > 100 µM (inactive)
CCOP(=O)(OCC)C(Cc1c[nH]c2ccccc12)C(=O)O (stereo not drawn); > 100 µM (inactive)
CNNC(=NS(=O)(=O)c1cc(C#N)c(NNC)cc1S)NNC; > 10 µM (inactive)

Proceeding to the next compound to report its GI50.
# compound "COC(=O)[C@]12CC[C@H]3CN(C(=O)OCc4ccccc4)[C@H]([C@H]31)[C@H](c1ccco1)N2" ; its GI50 = 29.4 µM (inactive)
